# Target Under Test: UniProt P09874
# Experiment Notes: Induction of PARP1 degradation in triple negative human MDA-MB-231 cells assessed as fold change in PARP1 protein expression at 5 uM incubated for 48 hrs by Western blot analysis relative to control
# Format: cell-based
Endpoint: fold change (FC)

Reference set, count: 3
O=C(CC12CC3CC(CC(C3)C1)C2)NCCCCN1CCN(C(=O)c2cc(Cc3n[nH]c(=O)c4ccccc34)ccc2F)CC1	1.2
O=C(NCCN1CCN(C(=O)c2cc(Cc3n[nH]c(=O)c4ccccc34)ccc2F)CC1)C(c1ccccc1)c1ccccc1	1.1
O=C(CC12CC3CC(CC(C3)C1)C2)NCCN1CCN(C(=O)c2cc(Cc3n[nH]c(=O)c4ccccc34)ccc2F)CC1	1.2

a: CC(C)Cc1ccc([C@H](C)C(=O)NCCCCN2CCN(C(=O)c3cc(Cc4n[nH]c(=O)c5ccccc45)ccc3F)CC2)cc1
b: O=C(CC1c2ccccc2-c2ccccc21)N1CCN(C(=O)c2cc(Cc3n[nH]c(=O)c4ccccc34)ccc2F)CC1
query: Short answer wanted: higher fold change (FC), a or b ? # respond with the chosen item's label
result: a
(a: 1.2, b: 0.1)

---

# Target Under Test: Poly [ADP-ribose] polymerase 1 (Homo sapiens) (UniProt P09874)
# Sequence (P09874 whole entry): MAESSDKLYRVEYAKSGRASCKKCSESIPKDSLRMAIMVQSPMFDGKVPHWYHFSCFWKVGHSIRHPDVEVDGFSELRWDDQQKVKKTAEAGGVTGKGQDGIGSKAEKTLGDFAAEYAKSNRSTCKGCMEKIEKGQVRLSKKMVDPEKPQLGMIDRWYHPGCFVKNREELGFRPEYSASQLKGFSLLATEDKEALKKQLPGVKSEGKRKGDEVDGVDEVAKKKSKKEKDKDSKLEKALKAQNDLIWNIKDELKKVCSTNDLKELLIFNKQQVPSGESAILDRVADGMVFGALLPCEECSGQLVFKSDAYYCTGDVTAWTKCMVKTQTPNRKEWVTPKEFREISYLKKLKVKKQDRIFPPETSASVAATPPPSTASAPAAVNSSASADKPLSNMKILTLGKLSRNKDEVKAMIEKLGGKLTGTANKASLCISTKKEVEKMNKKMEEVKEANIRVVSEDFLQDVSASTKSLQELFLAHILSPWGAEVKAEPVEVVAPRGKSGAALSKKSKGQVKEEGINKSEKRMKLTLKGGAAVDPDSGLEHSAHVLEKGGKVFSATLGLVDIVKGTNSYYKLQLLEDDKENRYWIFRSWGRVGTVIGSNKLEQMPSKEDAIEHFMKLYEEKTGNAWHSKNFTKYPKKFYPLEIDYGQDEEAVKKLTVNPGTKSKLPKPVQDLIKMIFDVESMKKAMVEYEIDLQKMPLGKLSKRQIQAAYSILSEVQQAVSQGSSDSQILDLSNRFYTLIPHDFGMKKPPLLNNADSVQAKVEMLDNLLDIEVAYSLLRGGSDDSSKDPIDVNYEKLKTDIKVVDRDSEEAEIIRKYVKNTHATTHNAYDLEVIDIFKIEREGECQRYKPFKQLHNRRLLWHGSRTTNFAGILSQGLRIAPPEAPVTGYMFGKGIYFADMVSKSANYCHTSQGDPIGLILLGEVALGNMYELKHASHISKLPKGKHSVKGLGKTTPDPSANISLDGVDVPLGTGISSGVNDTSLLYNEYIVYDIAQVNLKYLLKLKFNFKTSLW
# Experiment Notes: Induction of PARP1 degradation in triple-negative human MDA-MB-231 cells assessed as fold change in PARP1 protein expression at 2.5 uM incubated for 48 hrs by Western blot analysis relative to control
# Assay type: cell-based
Endpoint: fold change (FC)

Reference set, count: 2
O=C(CC12CC3CC(CC(C3)C1)C2)NCCCCCCN1CCN(C(=O)c2cc(Cc3n[nH]c(=O)c4ccccc34)ccc2F)CC1	0.9
O=C(CC12CC3CC(CC(C3)C1)C2)NCCN1CCN(C(=O)c2cc(Cc3n[nH]c(=O)c4ccccc34)ccc2F)CC1	1.1

a: O=C(CC12CC3CC(CC(C3)C1)C2)N1CCN(C(=O)c2cc(Cc3n[nH]c(=O)c4ccccc34)ccc2F)CC1
b: O=C(CC1c2ccccc2-c2ccccc21)NCCN1CCN(C(=O)c2cc(Cc3n[nH]c(=O)c4ccccc34)ccc2F)CC1
c: O=C(c1cc(Cc2n[nH]c(=O)c3ccccc23)ccc1F)N1CCN(C(=O)C(C2CCCCC2)C2CCCCC2)CC1
query: Please put the entries in order of rising fold change (FC). To answer, write out the labels according to the requested order.
result: b, c, a
(b: 0.4, c: 0.6, a: 0.9)

---

# Target Under Test: UniProtKB P09874
# Experiment Notes: Induction of PARP1 degradation in triple negative human MDA-MB-231 cells assessed as fold change in PARP1 protein expression at 5 uM incubated for 48 hrs by Western blot analysis relative to control
# Type: cell-based
Endpoint: fold change (FC)

Reference set, count: 5
O=C(NCCN1CCN(C(=O)c2cc(Cc3n[nH]c(=O)c4ccccc34)ccc2F)CC1)C(C1CCCCC1)C1CCCCC1	0.9
O=C(CC12CC3CC(CC(C3)C1)C2)NCCCCCCN1CCN(C(=O)c2cc(Cc3n[nH]c(=O)c4ccccc34)ccc2F)CC1	1.2
O=C(NCCCCN1CCN(C(=O)c2cc(Cc3n[nH]c(=O)c4ccccc34)ccc2F)CC1)C(C1CCCCC1)C1CCCCC1	0.8
CC(C)Cc1ccc([C@H](C)C(=O)NCCCCCCN2CCN(C(=O)c3cc(Cc4n[nH]c(=O)c5ccccc45)ccc3F)CC2)cc1	0.7
O=C(CC1c2ccccc2-c2ccccc21)NCCCCCCN1CCN(C(=O)c2cc(Cc3n[nH]c(=O)c4ccccc34)ccc2F)CC1	0.5

1: O=C(c1cc(Cc2n[nH]c(=O)c3ccccc23)ccc1F)N1CCN(C(=O)C(c2ccccc2)c2ccccc2)CC1
2: O=C(CC1c2ccccc2-c2ccccc21)NCCCCN1CCN(C(=O)c2cc(Cc3n[nH]c(=O)c4ccccc34)ccc2F)CC1
3: O=C(NCCCCCCN1CCN(C(=O)c2cc(Cc3n[nH]c(=O)c4ccccc34)ccc2F)CC1)C(c1ccccc1)c1ccccc1
query: Rank entries according to their fold change (FC), from the largest number down. To answer, write out the labels according to the requested order.
result: 3, 1, 2

I: O=C(c1cc(Cc2n[nH]c(=O)c3ccccc23)ccc1F)N1CCN(C(=O)C(C2CCCCC2)C2CCCCC2)CC1
II: O=C(NCCCCN1CCN(C(=O)c2cc(Cc3n[nH]c(=O)c4ccccc34)ccc2F)CC1)C(c1ccccc1)c1ccccc1
III: CC(C)Cc1ccc([C@H](C)C(=O)N2CCN(C(=O)c3cc(Cc4n[nH]c(=O)c5ccccc45)ccc3F)CC2)cc1
IV: O=C(CC1c2ccccc2-c2ccccc21)NCCN1CCN(C(=O)c2cc(Cc3n[nH]c(=O)c4ccccc34)ccc2F)CC1
query: Rank entries according to their fold change (FC), from the largest number down. To answer, write out the labels according to the requested order.
result: II, III, I, IV
(II: 1.6, III: 1, I: 0.7, IV: 0.3)

---

# Target Under Test: Poly [ADP-ribose] polymerase 1 (Homo sapiens) (UniProt P09874)
# Experiment Notes: Induction of PARP1 degradation in triple-negative human MDA-MB-231 cells assessed as fold change in PARP1 protein expression at 10 uM incubated for 48 hrs by Western blot analysis relative to control
# Assay type: cell-based
Endpoint: fold change (FC)

CC(C)Cc1ccc([C@H](C)C(=O)N2CCN(C(=O)c3cc(Cc4n[nH]c(=O)c5ccccc45)ccc3F)CC2)cc1	0.8
O=C(CC1c2ccccc2-c2ccccc21)NCCCCCCN1CCN(C(=O)c2cc(Cc3n[nH]c(=O)c4ccccc34)ccc2F)CC1	0.4

I: O=C(CC12CC3CC(CC(C3)C1)C2)N1CCN(C(=O)c2cc(Cc3n[nH]c(=O)c4ccccc34)ccc2F)CC1
II: O=C(NCCCCCCN1CCN(C(=O)c2cc(Cc3n[nH]c(=O)c4ccccc34)ccc2F)CC1)C(C1CCCCC1)C1CCCCC1
III: O=C(CC1c2ccccc2-c2ccccc21)NCCCCN1CCN(C(=O)c2cc(Cc3n[nH]c(=O)c4ccccc34)ccc2F)CC1
query: Please put the entries in order of rising fold change (FC). To answer, write out the labels according to the requested order.
result: II, III, I

---

# Target Under Test: Poly [ADP-ribose] polymerase 1 (Homo sapiens) (UniProt P09874)
# Experiment Notes: Induction of PARP1 degradation in triple-negative human MDA-MB-231 cells assessed as fold change in PARP1 protein expression at 10 uM incubated for 48 hrs by Western blot analysis relative to control
# Assay type: cell-based
Endpoint: fold change (FC)

O=C(NCCN1CCN(C(=O)c2cc(Cc3n[nH]c(=O)c4ccccc34)ccc2F)CC1)C(C1CCCCC1)C1CCCCC1	0.9
O=C(CC12CC3CC(CC(C3)C1)C2)NCCCCCCN1CCN(C(=O)c2cc(Cc3n[nH]c(=O)c4ccccc34)ccc2F)CC1	0.8
O=C(NCCCCCCN1CCN(C(=O)c2cc(Cc3n[nH]c(=O)c4ccccc34)ccc2F)CC1)C(c1ccccc1)c1ccccc1	1.3
CC(C)Cc1ccc([C@H](C)C(=O)NCCCCCCN2CCN(C(=O)c3cc(Cc4n[nH]c(=O)c5ccccc45)ccc3F)CC2)cc1	0.3
O=C(c1cc(Cc2n[nH]c(=O)c3ccccc23)ccc1F)N1CCN(C(=O)C(c2ccccc2)c2ccccc2)CC1	1.1

A: O=C(CC1c2ccccc2-c2ccccc21)NCCN1CCN(C(=O)c2cc(Cc3n[nH]c(=O)c4ccccc34)ccc2F)CC1
B: O=C(NCCN1CCN(C(=O)c2cc(Cc3n[nH]c(=O)c4ccccc34)ccc2F)CC1)C(c1ccccc1)c1ccccc1
query: Short answer wanted: higher fold change (FC), A or B ? # respond with the chosen item's label
result: B

A: O=C(CC12CC3CC(CC(C3)C1)C2)NCCCCN1CCN(C(=O)c2cc(Cc3n[nH]c(=O)c4ccccc34)ccc2F)CC1
B: CC(C)Cc1ccc([C@H](C)C(=O)NCCCCN2CCN(C(=O)c3cc(Cc4n[nH]c(=O)c5ccccc45)ccc3F)CC2)cc1
C: O=C(c1cc(Cc2n[nH]c(=O)c3ccccc23)ccc1F)N1CCN(C(=O)C(C2CCCCC2)C2CCCCC2)CC1
D: O=C(CC1c2ccccc2-c2ccccc21)N1CCN(C(=O)c2cc(Cc3n[nH]c(=O)c4ccccc34)ccc2F)CC1
query: Rank entries according to their fold change (FC), from the largest number down. To answer, write out the labels according to the requested order.
result: B, A, C, D
(B: 1.7, A: 1.1, C: 0.7, D: 0.1)

---

# Target Under Test: Poly [ADP-ribose] polymerase 1 (Homo sapiens) (UniProt P09874)
# Experiment Notes: Induction of PARP1 degradation in triple-negative human MDA-MB-231 cells assessed as fold change in PARP1 protein expression at 2.5 uM incubated for 48 hrs by Western blot analysis relative to control
# Format: cell-based
Endpoint: fold change (FC)

CC(C)Cc1ccc([C@H](C)C(=O)NCCN2CCN(C(=O)c3cc(Cc4n[nH]c(=O)c5ccccc45)ccc3F)CC2)cc1	0.9

A: CC(C)Cc1ccc([C@H](C)C(=O)NCCCCCCN2CCN(C(=O)c3cc(Cc4n[nH]c(=O)c5ccccc45)ccc3F)CC2)cc1
B: O=C(CC1c2ccccc2-c2ccccc21)N1CCN(C(=O)c2cc(Cc3n[nH]c(=O)c4ccccc34)ccc2F)CC1
C: O=C(CC1c2ccccc2-c2ccccc21)NCCCCN1CCN(C(=O)c2cc(Cc3n[nH]c(=O)c4ccccc34)ccc2F)CC1
D: CC(C)Cc1ccc([C@H](C)C(=O)N2CCN(C(=O)c3cc(Cc4n[nH]c(=O)c5ccccc45)ccc3F)CC2)cc1
query: Please put the entries in order of rising fold change (FC). To answer, write out the labels according to the requested order.
result: B, C, D, A
(B: 0.1, C: 0.5, D: 0.8, A: 1.2)

I: O=C(NCCN1CCN(C(=O)c2cc(Cc3n[nH]c(=O)c4ccccc34)ccc2F)CC1)C(c1ccccc1)c1ccccc1
II: O=C(NCCCCCCN1CCN(C(=O)c2cc(Cc3n[nH]c(=O)c4ccccc34)ccc2F)CC1)C(C1CCCCC1)C1CCCCC1
III: O=C(CC1c2ccccc2-c2ccccc21)NCCCCCCN1CCN(C(=O)c2cc(Cc3n[nH]c(=O)c4ccccc34)ccc2F)CC1
query: Rank entries according to their fold change (FC), from the largest number down. To answer, write out the labels according to the requested order.
result: I, II, III

A: O=C(NCCCCN1CCN(C(=O)c2cc(Cc3n[nH]c(=O)c4ccccc34)ccc2F)CC1)C(c1ccccc1)c1ccccc1
B: O=C(NCCN1CCN(C(=O)c2cc(Cc3n[nH]c(=O)c4ccccc34)ccc2F)CC1)C(C1CCCCC1)C1CCCCC1
query: Short answer wanted: higher fold change (FC), A or B ? # respond with the chosen item's label
result: A
